- Tested on: COLO 205 colon
- Test Protocol: NCI tumour cell line growth inhibition, 48 h
Readout: TGI (µM)
A number alone suffices; assume µM.

The examples below pair each entry with its known result.
{"columns": ["Compound", "Readout Value"],
 "data": [
  ["COc1ccc2[nH]c(C(=O)N3CCN(C(=O)OCc4ccc5c(Br)cc(Br)c(O)c5n4)CC3)cc2c1", 0.426],
  ["C=C(C)C(=O)OC1C[C@H](COC(C)=O)C2CC=C(C)C2C2OC(=O)C(=C)[C@H]12 (stereo not given in full)", 6.17],
  ["COc1ccc2c(c1)CC[C@@H]1C2CC[C@]2(C)C(=O)N(CCN3CCCC3)C(=O)CC12 (stereo not given in full)", 37.6],
  ["C[C@]12CC[C@H](O)C[C@@H]1CC[C@@H]1[C@@H]2CC[C@]2(C)[C@@H](c3cc(C(F)(F)F)n[nH]3)CC[C@@H]12", 16.2]
]}

What value of TGI has been reported for the following compound? `CC(C)(C)c1cc(C(C)(C)C)c2c(c1O)OC(=O)CS2`
9.89
